# targetOrSystem: HA of ca A/New Caledonia/20/99 (H1N1) virus (influenza A virus)
# assayNotes: cell-based or functional assay
measurementType: Neutralization IC50, H1-Ncal99 (µg/mL)

[[record]]
binder = "Antibody 3 (antibody, V domains shown) VH: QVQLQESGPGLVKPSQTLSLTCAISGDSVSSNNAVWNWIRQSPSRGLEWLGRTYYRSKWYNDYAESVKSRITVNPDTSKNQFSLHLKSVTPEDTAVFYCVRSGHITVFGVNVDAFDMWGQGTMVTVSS VL: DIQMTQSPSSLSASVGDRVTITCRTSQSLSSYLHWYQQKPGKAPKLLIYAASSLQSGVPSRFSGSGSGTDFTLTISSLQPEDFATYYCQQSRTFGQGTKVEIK"
unitname = "µg/mL"
endpointresult = 0.79

